- ASSAY_METHOD_TEXT: circular dichroism
- APPLIED_CONDITIONS: water; pH ns; 25 °C; 70 uM
*1 amine or outer side, *2 acyl side, *3 side chain or, on linkers, in order; H or OH if unused. Where a SMILES comes first, the peptide text is derived from it. Bridges are numbered along the chain shown (N, C = ends). [ ]: non-standard residue; d: D form. Benzene(1,3-(CH2SCH2CO)2) = O=C(CSCc1cccc(CSCC(=O)[*:2])c1)[*:1]; X3 = O=C(CSCCCCCCCCSCC(=O)[*:2])[*:1]; X2 = O=C(CSCCCCCCCSCC(=O)[*:2])[*:1]; X1 = O=C(CSCCCCCCSCC(=O)[*:2])[*:1]; dDap = NC[C@@H](N)C(=O)O; Dap = NC[C@H](N)C(=O)O
Criterion: helicity strictly less than 20%. Met: label 1. Not met: label 0.

CC(=O)N[C@@H](CCC(N)=O)C(=O)N[C@@H](CO)C(=O)N[C@@H](CCC(N)=O)C(=O)N[C@@H](CCC(N)=O)C(=O)N[C@H](C(=O)N[C@@H](Cc1ccccc1)C(=O)N[C@H]1CNC(=O)CSCc2ccc(cc2)CSCC(=O)NC[C@@H](C(=O)N[C@@H](CCC(N)=O)C(=O)N[C@@H](CC(N)=O)C(N)=O)NC(=O)[C@H](CC(C)C)NC(=O)[C@H](CC(C)C)NC(=O)[C@H](CCCNC(=N)N)NC(=O)[C@H](Cc2c[nH]c3ccccc23)NC(=O)[C@H](CC(C)C)NC(=O)[C@H](CC(N)=O)NC1=O)[C@@H](C)O | label 0

Determine whether this compound shows helicity lower than 20% (ties excluded): CC(=O)N[C@@H](CCC(N)=O)C(=O)N[C@@H](CO)C(=O)N[C@@H](CCC(N)=O)C(=O)N[C@@H](CCC(N)=O)C(=O)N[C@H](C(=O)N[C@@H](Cc1ccccc1)C(=O)N[C@H]1CNC(=O)CSCCCCCCCCSCC(=O)NC[C@H](C(=O)N[C@@H](CCC(N)=O)C(=O)N[C@@H](CC(N)=O)C(N)=O)NC(=O)[C@H](CC(C)C)NC(=O)[C@H](CC(C)C)NC(=O)[C@H](CCCNC(=N)N)NC(=O)[C@H](Cc2c[nH]c3ccccc23)NC(=O)[C@H](CC(C)C)NC(=O)[C@H](CC(N)=O)NC1=O)[C@@H](C)O
label 0

Answer whether the compound CC(=O)N[C@@H](CCC(N)=O)C(=O)N[C@@H](CO)C(=O)N[C@@H](CCC(N)=O)C(=O)N[C@@H](CCC(N)=O)C(=O)N[C@H](C(=O)N[C@@H](Cc1ccccc1)C(=O)N[C@H]1CNC(=O)CSCc2ccc(cc2)-c2ccc(cc2)CSCC(=O)NC[C@@H](C(=O)N[C@@H](CCC(N)=O)C(=O)N[C@@H](CC(N)=O)C(N)=O)NC(=O)[C@H](CC(C)C)NC(=O)[C@H](CC(C)C)NC(=O)[C@H](CCCNC(=N)N)NC(=O)[C@H](Cc2c[nH]c3ccccc23)NC(=O)[C@H](CC(C)C)NC(=O)[C@H](CC(N)=O)NC1=O)[C@@H](C)O has helicity strictly less than 20%
label 1

Does CC[C@H](C)[C@@H]1NC(=O)[C@H](NC(=O)[C@H](CCC(=O)O)NC(=O)[C@@H]2CCCN2C(=O)[C@H](CC(N)=O)NC(=O)[C@H](CCC(=O)O)NC(C)=O)CNC(=O)CSCCCCCCCSCC(=O)NC[C@@H](C(=O)N[C@@H](Cc2c[nH]cn2)C(=O)N[C@H](C(=O)N[C@@H](CCC(N)=O)C(=O)N[C@@H](CCCNC(=N)N)C(=O)N[C@H](C(=O)N[C@@H](CCSC)C(N)=O)C(C)C)C(C)C)NC(=O)[C@H](CC(=O)O)NC(=O)[C@H](CC(C)C)NC1=O (Ac-ENPE[dDap]ILD[Dap]HVQRVM-NH2; linker 5-9 via X2) have helicity strictly under 20%?
label 1

I'd appreciate it if you could check whether CC[C@H](C)[C@@H]1NC(=O)[C@H](NC(=O)[C@H](CCC(=O)O)NC(=O)[C@@H]2CCCN2C(=O)[C@H](CC(N)=O)NC(=O)[C@H](CCC(=O)O)NC(C)=O)CNC(=O)CSCCCCCCCCSCC(=O)NC[C@@H](C(=O)N[C@@H](Cc2c[nH]cn2)C(=O)N[C@H](C(=O)N[C@@H](CCC(N)=O)C(=O)N[C@@H](CCCNC(=N)N)C(=O)N[C@H](C(=O)N[C@@H](CCSC)C(N)=O)C(C)C)C(C)C)NC(=O)[C@H](CC(=O)O)NC(=O)[C@H](CC(C)C)NC1=O (Ac-ENPE[dDap]ILD[Dap]HVQRVM-NH2; linker 5-9 via X3) has helicity smaller than 20%.
label 1

Hello, I'm reviewing records and need to know if helicity of CC[C@H](C)[C@@H]1NC(=O)[C@H](NC(=O)[C@H](CCC(=O)O)NC(=O)[C@@H]2CCCN2C(=O)[C@H](CC(N)=O)NC(=O)[C@H](CCC(=O)O)NC(C)=O)CNC(=O)CSCCCCCCCCSCC(=O)NC[C@H](C(=O)N[C@@H](Cc2c[nH]cn2)C(=O)N[C@H](C(=O)N[C@@H](CCC(N)=O)C(=O)N[C@@H](CCCNC(=N)N)C(=O)N[C@H](C(=O)N[C@@H](CCSC)C(N)=O)C(C)C)C(C)C)NC(=O)[C@H](CC(=O)O)NC(=O)[C@H](CC(C)C)NC1=O (Ac-ENPE[dDap]ILD[dDap]HVQRVM-NH2; linker 5-9 via X3) is below 20%. Could you check?
label 0

API: query returns whether the compound falls strictly under 20% in helicity. Query: CC[C@H](C)[C@@H]1NC(=O)[C@H](NC(=O)[C@@H](N)CCC(=O)O)CNC(=O)CSCc2cccc(c2)CSCC(=O)NC[C@@H](C(=O)N[C@@H](Cc2c[nH]cn2)C(=O)O)NC(=O)[C@H](CC(=O)O)NC(=O)[C@H](CC(C)C)NC1=O (H-E[dDap]ILD[Dap]H-OH; linker 2-6 via Benzene(1,3-(CH2SCH2CO)2))
label 1

Is helicity of CC[C@H](C)[C@@H]1NC(=O)[C@H](NC(=O)[C@H](CCC(=O)O)NC(=O)[C@@H]2CCCN2C(=O)[C@H](CC(N)=O)NC(=O)[C@H](CCC(=O)O)NC(C)=O)CNC(=O)CSCCCCCCSCC(=O)NC[C@H](C(=O)N[C@@H](Cc2c[nH]cn2)C(=O)N[C@H](C(=O)N[C@@H](CCC(N)=O)C(=O)N[C@@H](CCCNC(=N)N)C(=O)N[C@H](C(=O)N[C@@H](CCSC)C(N)=O)C(C)C)C(C)C)NC(=O)[C@H](CC(=O)O)NC(=O)[C@H](CC(C)C)NC1=O (Ac-ENPE[dDap]ILD[dDap]HVQRVM-NH2; linker 5-9 via X1) strictly below 20%?
label 0
